# experimental_system: Upc2 (UniProt Q12151)
# Sequence: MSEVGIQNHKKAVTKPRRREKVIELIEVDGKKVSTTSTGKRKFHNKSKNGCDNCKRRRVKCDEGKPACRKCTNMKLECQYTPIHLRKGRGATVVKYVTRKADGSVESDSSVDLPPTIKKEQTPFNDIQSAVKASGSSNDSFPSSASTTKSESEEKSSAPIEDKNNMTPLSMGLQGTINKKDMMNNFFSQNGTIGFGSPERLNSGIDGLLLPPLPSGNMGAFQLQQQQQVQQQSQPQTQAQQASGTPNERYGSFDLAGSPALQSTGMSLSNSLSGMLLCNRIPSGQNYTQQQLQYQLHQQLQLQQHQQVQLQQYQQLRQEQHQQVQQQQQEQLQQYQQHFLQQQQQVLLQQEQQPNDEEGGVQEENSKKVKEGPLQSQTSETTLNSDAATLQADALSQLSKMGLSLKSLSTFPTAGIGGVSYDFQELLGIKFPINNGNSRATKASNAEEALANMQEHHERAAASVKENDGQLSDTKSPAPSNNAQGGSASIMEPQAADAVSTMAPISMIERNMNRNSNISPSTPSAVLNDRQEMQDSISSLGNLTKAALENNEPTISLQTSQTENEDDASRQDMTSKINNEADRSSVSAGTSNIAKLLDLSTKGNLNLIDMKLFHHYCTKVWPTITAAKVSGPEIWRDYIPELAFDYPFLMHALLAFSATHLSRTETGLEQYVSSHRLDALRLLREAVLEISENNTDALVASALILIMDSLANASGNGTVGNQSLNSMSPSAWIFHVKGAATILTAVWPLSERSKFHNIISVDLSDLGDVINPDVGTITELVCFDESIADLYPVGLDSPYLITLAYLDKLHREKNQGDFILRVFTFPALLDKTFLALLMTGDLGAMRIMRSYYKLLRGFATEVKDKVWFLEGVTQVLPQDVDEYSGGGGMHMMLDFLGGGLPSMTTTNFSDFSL
# assay_summary: PBM E-score (8-mer binding enrichment) (E-score (-0.5 to 0.5)); higher = stronger / more preferred TF binding
# experimental_context: protein concentration: 200 nM; construct: GST-full length
Over roughly 33,000 sequences, “E-score (-0.5 to 0.5)” has its median near -0.043; the highest 2% begin near 0.37. Shown is part of a subset that was picked to be rich in the highest values.
measured_metric: PBM E-score

AGTATGCC; -0.189
ATTCGTTG; 0.215
CTTCGTTA; 0.345
AGCTCGTG; 0.107
CTGGTCAA; -0.17
AGCTCGTA; 0.473
GCAGTAGC; -0.174
GGCTCGGA; 0.0556
ATACGGCG; 0.43
GGTTTGCA; 0.0633
GGCGCAAC; 0.00488
CTAGCCCA; -0.335
ACACGGCG; -0.0227
ACGTAGCA; 0.0515
CCGTAGCA; 0.0702
CCGTAGAA; 0.118
CCTAGCGA; -0.299
GAACATCA; -0.0243
ATTCGTTA; 0.346
ACTCTACT; 0.0626
ATTCGTTC; 0.428
CGTTTGCA; 0.395
AGTTTGGC; -0.015
TCGCAAAA; 0.216
GGTATGCA; -0.00862
CTACGGCC; -0.0664
AGCTCGTC; 0.103
CGTATGTA; 0.387
GTTCGTTA; 0.403
CTTCGTTC; 0.457
CGCTCGTA; 0.466
ATACGGCA; 0.422
CGTATGCC; 0.372
CGCTCGTC; 0.127
CGTATGCA; 0.377
CCGCACTC; 0.195
CGCTCGGA; 0.163
AACACTGA; 0.0163
TCGTAGCA; 0.39
CTTCGCTC; 0.208
CGTTTGGC; 0.409
CTACGGCA; 0.0153
CGTTTGAG; 0.396
ATCCCGTG; 0.0975
AGTATGCA; -0.3
CGTTCGAA; 0.221
